# Test system: MDA-MB-231
# Test Summary: drug sensitivity score (DSS), CellTiter-Blue viability (DSS (AUC-based score)); higher = stronger viability inhibition; extreme values may be limits of the assay
# Setup Conditions: incubation time: 72 h
Below, each of the compounds is paired with its reported drug sensitivity score value.
Reply with the value as a number alone.

Worked set:
Suppose we examine the compound COC(=O)c1ccc2c(c1)NC(=O)/C2=C(\Nc1ccc(N(C)C(=O)CN2CCN(C)CC2)cc1)c1ccccc1 ; what drug sensitivity score value has been reported?
4.3

I have this compound here, COCC[n+]1c2c(n(Cc3cnccn3)c1C)C(=O)c1ccccc1C2=O , and I need its recorded drug sensitivity score.
40

# lookup: drug sensitivity score of O=C(Nc1cccnc1)N1CCC(Cc2cccc(Oc3ccc(C(F)(F)F)cn3)c2)CC1
0

// returns reported drug sensitivity score for input COc1cc(OC2CCN(C)CC2)ccc1Nc1ncc2c(n1)n(C1CCCC1)c(=O)n2C
3.65

Requested field: drug sensitivity score. Item: CNC(=O)c1cc(Oc2ccc(NC(=O)Nc3ccc(Cl)c(C(F)(F)F)c3)c(F)c2)ccn1
8.54

New cases:
Consider the compound shown here: S=P(N1CC1)(N1CC1)N1CC1 What is its recorded drug sensitivity score?
3.37

I have this compound here, NC(=O)c1ccc(I)c([N+](=O)[O-])c1 , and I need its recorded drug sensitivity score.
0

For the compound COCC1(CO)C(=O)C2CCN1CC2 (stereo not given) , what drug sensitivity score is on record?
0

Report drug sensitivity score for N#Cc1ccc(COC[C@H]2O[C@@H](n3c(NCc4ccc(Cl)c(Cl)c4)nc4c(N)ncnc43)[C@H](O)[C@@H]2O)cc1 please.
4.35

What drug sensitivity score value was documented for this compound, Cc1[nH]c2ccccc2c1CCNCc1ccc(/C=C/C(=O)NO)cc1 ?
16.5

====

# System: DU-4475
# Test Summary: normalised response (% of control), CellTox Green; higher = less cell death (100 = DMSO, 0 = benzethonium chloride kill control)
# Setup Conditions: incubation time: 72 h
Endpoint Name: normalised response (%)
Report the figure in % without appending any unit label.

What value of normalised response has been recorded for this entry: O=C(/C=C/c1cccc(S(=O)(=O)Nc2ccccc2)c1)NO [Belinostat] (10000 nM)
76

Could you share which normalised response value was measured for CNC(=O)c1ccc(N2C(=S)N(c3ccc(C#N)c(C(F)(F)F)c3)C(=O)C2(C)C)cc1F [Enzalutamide] (100 nM) ?
107

I have this compound here, CCOC(=O)CCNc1cc(N2CCc3ccccc3CC2)nc(-c2ccccn2)n1 [GSK-J4] (10000 nM) , and I need its recorded normalised response.
79.9

Reported normalised response for O=C(Nc1ccncc1)C(=O)c1cn(Cc2ccc(Cl)cc2)c2ccccc12 [Indibulin] (100 nM) : what is it?
105

Suppose we examine the compound O=C(/C=C/c1cccc(S(=O)(=O)Nc2ccccc2)c1)NO [Belinostat] (100 nM) ; what normalised response value has been reported?
99.4

# get_value(readout='normalised response', item= COCC[n+]1c2c(n(Cc3cnccn3)c1C)C(=O)c1ccccc1C2=O [YM155] (1000 nM) )
77

Quick one: normalised response for COCC[n+]1c2c(n(Cc3cnccn3)c1C)C(=O)c1ccccc1C2=O [YM155] (10000 nM) ?
68.1

Endpoint output: normalised response of CCOC(=O)CCNc1cc(N2CCc3ccccc3CC2)nc(-c2ccccn2)n1 [GSK-J4] (1000 nM) . Value?
106

Attention now turns to another entry.
Any idea what its normalised response is? The compound is CN(C)c1nc(N(C)C)nc(N(C)C)n1 [Altretamine] (1000 nM)
103
